Recorded koff, one value per entry.
TARGET ENTITY: T1, Recombinant human insulin receptor (B form) ECD (R&D Systems) (human, UniProt P06213 28-956, limits assumed)
T1 construct: extracellular domain; also called INSR-ECD; h-INSR
EXPERIMENT SUMMARY: SPR (Biacore 2000), INSR-ECD immobilised, purified Fab injected, 1:1 fit [cont'd]
Return type: number; implicit unit s⁻¹.

{"BINDER": "RHF.15.05896.020 (Fab, V domains shown, Untagged Fab) VH: EVQLVETGGGVVQPGRSLRLSCAASGFKFSSYAMHWVRQAPGKGLEWVAVISWSGSNKYYADSVKGRFTISRDNSKNTLYLQMNSLRAEDTAVYYCARHEWGFGFDEWGQGTTVTVSS VL: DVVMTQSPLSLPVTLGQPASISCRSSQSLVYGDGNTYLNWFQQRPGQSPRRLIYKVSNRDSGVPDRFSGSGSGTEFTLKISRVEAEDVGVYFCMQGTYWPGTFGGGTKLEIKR", "koff / s⁻¹": 0.00017}
{"BINDER": "RHF.15.05896.044 (Fab, V domains shown, Untagged Fab) VH: EVQLVETGGGVVQPGRSLRLSCAASGFKFSSYAMHWVRQAPGKGLEWVAVISNSGSNKYYADSVKGRFTISRDNSKNTLYLQMNSLRAEDTAVYYCARHEWGFGFDKWGQGTTVTVSS VL: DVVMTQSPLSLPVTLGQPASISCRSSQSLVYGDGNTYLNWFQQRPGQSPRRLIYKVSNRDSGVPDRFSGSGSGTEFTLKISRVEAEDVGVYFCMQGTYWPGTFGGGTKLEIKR", "koff / s⁻¹": 0.00017}
{"BINDER": "RHF.15.05896.006 (Fab, V domains shown, Untagged Fab) VH: EVQLVETGGGVVQPGRSLRLSCAASGFKFSSYAMHWVRQAPGKGLEWVAVISYSGDNKYYADSVKGRFTISRDNSKNTLYLQMNSLRAEDTAVYYCARHEWGFGFDRWGQGTTVTVSS VL: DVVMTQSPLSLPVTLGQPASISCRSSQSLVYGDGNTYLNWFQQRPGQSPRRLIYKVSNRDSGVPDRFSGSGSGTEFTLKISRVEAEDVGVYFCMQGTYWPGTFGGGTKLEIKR", "koff / s⁻¹": 0.00024}
{"BINDER": "RHF.15.05896.075 (Fab, V domains shown, Untagged Fab) VH: EVQLVETGGGVVQPGRSLRLSCAASGFKFSSYAMHWVRQAPGKGLEWVAVISYSGSNKYYADSVKGRFTISRDNSKNTLYLQMNSLRAEDTAVYYCARHEWGFGYDYWGQGTTVTVSS VL: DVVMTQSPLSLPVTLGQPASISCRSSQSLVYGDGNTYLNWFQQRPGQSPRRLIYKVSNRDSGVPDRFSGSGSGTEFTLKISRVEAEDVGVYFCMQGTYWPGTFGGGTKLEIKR", "koff / s⁻¹": 0.00045}
{"BINDER": "RHF.15.05896.036 (Fab, V domains shown, Untagged Fab) VH: EVQLVETGGGVVQPGRSLRLSCAASGFKFSSYAMHWVRQAPGKGLEWVAVISYSGGNKYYADSVKGRFTISRDNSKNTLYLQMNSLRAEDTAVYYCARHEWGFGFDLWGQGTTVTVSS VL: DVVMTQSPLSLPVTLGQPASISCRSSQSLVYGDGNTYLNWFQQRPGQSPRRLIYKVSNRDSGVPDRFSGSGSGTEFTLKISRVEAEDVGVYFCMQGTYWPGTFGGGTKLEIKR", "koff / s⁻¹": 0.00022}
{"BINDER": "RHF.15.05896.015 (Fab, V domains shown, Untagged Fab) VH: EVQLVETGGGVVQPGRSLRLSCAASGFKFSSYAMHWVRQAPGKGLEWVAVISYSGRNKYYADSVKGRFTISRDNSKNTLYLQMNSLRAEDTAVYYCARHEWGFGQDYWGQGTTVTVSS VL: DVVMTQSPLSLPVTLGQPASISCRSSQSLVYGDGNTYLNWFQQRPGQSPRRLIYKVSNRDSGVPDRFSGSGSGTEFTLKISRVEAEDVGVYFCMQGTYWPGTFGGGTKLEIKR", "koff / s⁻¹": 0.00025}
{"BINDER": "RHF.15.05896.056 (Fab, V domains shown, Untagged Fab) VH: EVQLVETGGGVVQPGRSLRLSCAASGFKFSSYAMHWVRQAPGKGLEWVAVISYGGSNKYYADSVKGRFTISRDNSKNTLYLQMNSLRAEDTAVYYCARHEWGFGFDEWGQGTTVTVSS VL: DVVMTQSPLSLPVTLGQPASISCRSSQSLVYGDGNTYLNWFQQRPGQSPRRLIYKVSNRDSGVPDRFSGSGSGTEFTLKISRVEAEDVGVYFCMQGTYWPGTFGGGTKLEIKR", "koff / s⁻¹": 0.00017}
{"BINDER": "RHF.15.05896.068 (Fab, V domains shown, Untagged Fab) VH: EVQLVETGGGVVQPGRSLRLSCAASGFKFSSYAMHWVRQAPGKGLEWVAVISYSGGNKYYADSVKGRFTISRDNSKNTLYLQMNSLRAEDTAVYYCARHEWGFGYDYWGQGTTVTVSS VL: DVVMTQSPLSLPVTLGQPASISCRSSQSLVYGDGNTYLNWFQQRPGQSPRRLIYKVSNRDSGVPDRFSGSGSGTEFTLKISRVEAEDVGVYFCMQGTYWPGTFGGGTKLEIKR", "koff / s⁻¹": 0.00038}

# next binder below
Would you kindly share the measured koff for RHF.15.05896.032 (Fab, V domains shown, Untagged Fab) VH: EVQLVETGGGVVQPGRSLRLSCAASGFKFSSYAMHWVRQAPGKGLEWVAVISYSGENKYYADSVKGRFTISRDNSKNTLYLQMNSLRAEDTAVYYCARHEWGFGFDEWGQGTTVTVSS VL: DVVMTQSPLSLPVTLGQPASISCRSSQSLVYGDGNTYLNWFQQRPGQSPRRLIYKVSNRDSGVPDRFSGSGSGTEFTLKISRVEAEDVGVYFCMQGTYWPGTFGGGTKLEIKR ?
0.0001
